Where do the numbers come from? From patent US6579686B2.

Each entry below carries its reported EC50 at 24 h.
Target Or System: mouse CAR (mCAR) (Mus musculus, UniProt O35627)
Sequence (O35627 whole entry): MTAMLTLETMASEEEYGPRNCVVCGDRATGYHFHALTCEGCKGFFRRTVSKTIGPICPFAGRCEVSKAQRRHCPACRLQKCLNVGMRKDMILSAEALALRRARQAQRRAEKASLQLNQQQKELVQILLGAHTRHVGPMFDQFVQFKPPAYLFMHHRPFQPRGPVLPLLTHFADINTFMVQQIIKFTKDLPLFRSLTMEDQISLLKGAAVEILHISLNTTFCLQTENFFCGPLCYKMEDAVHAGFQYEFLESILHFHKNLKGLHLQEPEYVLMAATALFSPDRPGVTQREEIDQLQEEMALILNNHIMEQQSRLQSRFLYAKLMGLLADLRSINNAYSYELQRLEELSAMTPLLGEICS
Test Protocol: in vitro

Molecule	Result
CC(=O)[C@H]1CC[C@H]2[C@@H]3CC[C@@H]4CC(=O)CC[C@]4(C)[C@H]3CC[C@]12C [5β-pregnane-3,20-dione]	> 10 µM
C[C@@H]1C[C@H]2[C@@H]3CCC4=CC(=O)C=C[C@]4(C)[C@@]3(F)[C@@H](O)C[C@]2(C)[C@@]1(O)C(=O)CO [dexamethasone]	> 10 µM

Okay, next one:
Input line: Give recorded EC50 at 24 h with mouse CAR (mCAR) (Mus musculus, UniProt O35627) for the following molecule: CC#C[C@]1(O)CC[C@H]2[C@@H]3CCC4=CC(=O)CCC4=C3[C@@H](c3ccc(N(C)C)cc3)C[C@@]21C [RU486]
Output line: > 10 µM
